Values compiled from patent US7566805B2.

# Assay Text: Racemic modafinil:malonic acid co-crystal pharmacokinetic study in dogs (vs micronized pure modafinil)
# Assay type: in vivo
# Condition Details: dog, in vivo, read-out: Tmax

{"columns": ["Molecule", "Tmax / h"],
 "data": [
  ["NC(=O)C[S+]([O-])C(c1ccccc1)c1ccccc1 (racemic) [Racemic Modafinil]", 1.3]
]}

* * *

Quick reference for half-life among some compounds
# Assay Text: Dog pharmacokinetic study of a single intravenous dose of R-(−)-modafinil vs racemic modafinil
# Format: in vivo
# Condition Details: dog, plasma; dogs, 5 mg/kg IV; Mean

{"columns": ["Compound", "half-life, h"],
 "data": [
  ["NC(=O)C[S@@+]([O-])C(c1ccccc1)c1ccccc1 [R-(−)-modafinil]", 1.53],
  ["NC(=O)C[S+]([O-])C(c1ccccc1)c1ccccc1 (racemic) [Racemic Modafinil]", 1.05]
]}
